- METHOD: Quantitative High-Throughput drug screen in 47 multiple myeloma cell lines against the NCATS MIPE library collection: MM1S_ATCC cell viability assay (AID 1918980); further: nearly all actives have a fitted effect of over 45% in size
- CONDITION SET: MM1S myeloma viability, CellTiter-Glo ATP luminescence, 48 h; series mostly up to 45.8 µM
Inconclusive results are not listed. Calls of active or inactive are those of the source. The call rests on the fitted dose curve; in most records, active means well fitted cell-killing curve with a large enough effect; inconclusive means small, poorly fitted or top-dose-only effect, or effect the other way; inactive means no such curve, though single readings can be large or run the other way.
Outcomes: yes for active, no for inactive

- CC(=O)N(C)C1(c2ccccc2)CCN(CCC[C@]2(c3ccc(Cl)c(Cl)c3)CCCN(C(=O)c3ccccc3)C2)CC1: yes
- CN[C@@H](C)C(=O)N[C@H]1CN(C(=O)CC(C)C)CC[C@H]2CC[C@@H](C(=O)NC(c3ccccc3)c3ccccc3)N2C1=O: yes
- C[N+](C)(C)CC(=O)O: no
- CO[C@H]1C[C@@H]2CC[C@@H](C)[C@@](O)(O2)C(=O)C(=O)N2CCCC[C@@H]2C(=O)O[C@H]([C@H](C)C[C@@H]2CC[C@H](OP(C)(C)=O)[C@H](OC)C2)CC(=O)[C@H](C)C=C(C)[C@@H](O)[C@@H](OC)C(=O)[C@H](C)C[C@H](C)C=CC=CC=C1C: no
- COc1ccc(C2Sc3ccccc3N(CCN(C)C)C(=O)C2OC(C)=O)cc1 (stereo not drawn): yes
- O=c1c(-c2ccc(O)cc2)coc2cc(OC3O[C@H](CO)[C@H](O)[C@H](O)[C@H]3O)cc(O)c12 (stereo partly drawn): yes
- COc1ccc(C2CC(c3ccccc3)=NN2c2ccc(S(N)(=O)=O)cc2)cc1 (stereo not drawn): yes
- COc1ccc(-n2c(C)c([N+](=O)[O-])c3ccc(O)cc32)cc1: yes
